Biological target: human fibroblasts derived MMP-1 (type I collagenase) (Homo sapiens)
Sequence (P03956 100-469): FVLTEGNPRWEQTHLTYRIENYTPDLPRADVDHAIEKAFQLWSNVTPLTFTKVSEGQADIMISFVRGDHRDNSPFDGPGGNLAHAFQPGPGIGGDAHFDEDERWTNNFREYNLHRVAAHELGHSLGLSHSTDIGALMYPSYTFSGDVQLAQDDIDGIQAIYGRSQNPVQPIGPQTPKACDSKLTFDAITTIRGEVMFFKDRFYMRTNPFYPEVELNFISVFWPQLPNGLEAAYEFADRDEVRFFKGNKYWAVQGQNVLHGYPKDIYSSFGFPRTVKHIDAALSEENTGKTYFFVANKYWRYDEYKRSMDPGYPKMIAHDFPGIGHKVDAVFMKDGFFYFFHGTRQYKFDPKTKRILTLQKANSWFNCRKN
ATTRIBUTE MEASURED: IC50 (nM)
# value in nM; strip the unit string

Req: Tell me its IC50 on human fibroblasts derived MMP-1 (type I collagenase) (Homo sapiens): COc1ccc(-c2ccc(S(=O)(=O)N3CC[C@@H](NCc4ccccc4)C[C@@H]3C(=O)NO)cc2)cc1 [Compound 56]
Resp: 1300

Req: Supply IC50 measured with human fibroblasts derived MMP-1 (type I collagenase) (Homo sapiens) for COc1ccc(CN[C@@H]2CCN(S(=O)(=O)c3ccc(-c4ccc(OC)cc4)cc3)[C@@H](C(=O)NO)C2)cc1 [Compound 62] .
Resp: 870

Req: Please look at COc1ccc(OCCCCC(=O)N[C@@H]2CCN(S(=O)(=O)c3ccc(OC)cc3)[C@@H](C(=O)NO)C2)cc1 [Compound 46] and tell me its recorded IC50 on human fibroblasts derived MMP-1 (type I collagenase) (Homo sapiens).
Resp: 7600

Req: Give IC50 for O=C(N[C@@H]1CCN(S(=O)(=O)c2ccc(-c3ccc(O)cc3)cc2)[C@@H](C(=O)NO)C1)c1ccccc1 [Compound 60] tested on human fibroblasts derived MMP-1 (type I collagenase) (Homo sapiens).
Resp: 4900

Req: Print human fibroblasts derived MMP-1 (type I collagenase) (Homo sapiens) IC50 for CC(=O)N[C@@H]1CCN(S(=O)(=O)c2ccc(-c3ccc(Cl)cc3)cc2)[C@@H](C(=O)NO)C1 [Compound 72] .
Resp: 37

Req: Provide IC50, tested on human fibroblasts derived MMP-1 (type I collagenase) (Homo sapiens), for COc1ccc(S(=O)(=O)N2CC[C@@H](NC(C)=O)C[C@@H]2C(=O)NO)cc1 [Compound 66] .
Resp: 530

Req: Specify the recorded IC50 for CC(=O)N[C@@H]1CCN(S(=O)(=O)c2ccc(-c3ccc(O)cc3)cc2)[C@@H](C(=O)NO)C1 [Compound 65] , system: human fibroblasts derived MMP-1 (type I collagenase) (Homo sapiens).
Resp: 870

Req: Find IC50 for CC(C)CCC(=O)N[C@@H]1CCN(S(=O)(=O)c2cccs2)[C@@H](C(=O)NO)C1 [Compound 51] on human fibroblasts derived MMP-1 (type I collagenase) (Homo sapiens) and write it down.
Resp: 6.5

Req: Write IC50 of COc1ccc(C(=O)N[C@@H]2CCN(S(=O)(=O)c3cccs3)[C@@H](C(=O)NO)C2)cc1 [Compound 50] ; system used: human fibroblasts derived MMP-1 (type I collagenase) (Homo sapiens)
Resp: 8400
